- Test system: 521955-158-R6-J3-PDC complex spheroid growth, % test/control
- procedure_details: Anticancer human tumor 521955-158-R6-J3-PDC patient-derived pancreatic carcinoma cell line growth inhibition [Asc]
- test_settings: second compound 0.316 µM; first compound 0.0316 µM; stronger effect = lower value
// reported viability, T/C for each item listed
Quick reminder: number only, in %, skip the unit.

Reference set, count: 5
{"columns": ["compound", "unit_label", "viability, T/C"],
 "data": [
  ["COc1c(OCCCN2CCOCC2)ccc2c3n(c(=NC(=O)c4cnc(N)nc4)nc12)CCN3 + Cc1c(S(C)(=O)=O)c(-c2cc(F)cc(N3CCN(c4ccc(NS(=O)(=O)c5ccc(NC(CCN6CCC(C(=O)OCCCP(=O)(O)O)CC6)CSc6ccccc6)c(S(=O)(=O)C(F)(F)F)c5)cc4)CC3)c2)c(-c2ccc(Cl)cc2)n1C(C)C", "%", 39],
  ["NC1CCC(NC2CC2c2ccccc2)CC1 (stereo unspecified) + CNC(C)C(=O)NC1CN(S(=O)(=O)c2cccc(S(=O)(=O)N3CCC4CCC(C(=O)NC(c5ccccc5)c5ccccc5)N4C(=O)C(NC(=O)C(C)NC)C3)c2)CCC2CCC(C(=O)NC(c3ccccc3)c3ccccc3)N2C1=O", "%", 71],
  ["C#Cc1c(F)ccc2cc(O)cc(-c3ncc4c(N5CC6CCC(C5)N6)nc(OCC56CCCN5CC(F)C6)nc4c3F)c12 (stereo unspecified) + CNC(C)C(=O)NC1CN(S(=O)(=O)c2cccc(S(=O)(=O)N3CCC4CCC(C(=O)NC(c5ccccc5)c5ccccc5)N4C(=O)C(NC(=O)C(C)NC)C3)c2)CCC2CCC(C(=O)NC(c3ccccc3)c3ccccc3)N2C1=O", "%", 54.4],
  ["Cn1ncnc1[C@H]1c2n[nH]c(=O)c3cc(F)cc(c23)N[C@@H]1c1ccc(F)cc1 + Cc1c(S(C)(=O)=O)c(-c2cc(F)cc(N3CCN(c4ccc(NS(=O)(=O)c5ccc(NC(CCN6CCC(C(=O)OCCCP(=O)(O)O)CC6)CSc6ccccc6)c(S(=O)(=O)C(F)(F)F)c5)cc4)CC3)c2)c(-c2ccc(Cl)cc2)n1C(C)C", "%", 40.8],
  ["O=C(c1ccc(F)c(F)c1Nc1ccc(I)cc1F)N1CC(O)([C@@H]2CCCCN2)C1 + Cc1c(S(C)(=O)=O)c(-c2cc(F)cc(N3CCN(c4ccc(NS(=O)(=O)c5ccc(NC(CCN6CCC(C(=O)OCCCP(=O)(O)O)CC6)CSc6ccccc6)c(S(=O)(=O)C(F)(F)F)c5)cc4)CC3)c2)c(-c2ccc(Cl)cc2)n1C(C)C", "%", 43.1]
]}

What value of measured viability, T/C is listed for CNC(C)C(=O)NC1CN(S(=O)(=O)c2cccc(S(=O)(=O)N3CCC4CCC(C(=O)NC(c5ccccc5)c5ccccc5)N4C(=O)C(NC(=O)C(C)NC)C3)c2)CCC2CCC(C(=O)NC(c3ccccc3)c3ccccc3)N2C1=O (stereo unspecified) + Cc1c(S(C)(=O)=O)c(-c2cc(F)cc(N3CCN(c4ccc(NS(=O)(=O)c5ccc(NC(CCN6CCC(C(=O)OCCCP(=O)(O)O)CC6)CSc6ccccc6)c(S(=O)(=O)C(F)(F)F)c5)cc4)CC3)c2)c(-c2ccc(Cl)cc2)n1C(C)C ?
42.8

* * *

- Tested on: 521955-158-R6-J3-PDC complex spheroid growth, % test/control
- procedure_details: Anticancer human tumor 521955-158-R6-J3-PDC cell line growth inhibition [Asc];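 note: spheroids exposed to compounds for 7 days; 100% = DMSO vehicle control wells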
- test_settings: second compound 0.03 µM; first compound 3.16 µM; stronger effect = lower value
measured_parameter: viability, T/C (%)
Quick reminder: number only, in %, skip the unit.

Reference set, count: 3
{"columns": ["molecule", "result"],
 "data": [
  ["C=C(F)C(=O)N1CCN(c2nc(OCC3CCCN3C)nc3c2CCN(c2cccc4cccc(Cl)c24)C3)CC1CC#N (centres undefined) + CCN1C(C(=O)NC23CCC(C(=O)O)(CC2)CC3)C(c2cccc(Cl)c2F)C2(C(=O)Nc3cc(Cl)ccc32)C12CCCCC2", 90.2],
  ["C=CC(=O)N1CCN(c2nc(=O)n(-c3c(C)ccnc3C(C)C)c3nc(-c4c(O)cccc4F)c(F)cc23)C(C)C1 (centres undefined) + CCN1C(C(=O)NC23CCC(C(=O)O)(CC2)CC3)C(c2cccc(Cl)c2F)C2(C(=O)Nc3cc(Cl)ccc32)C12CCCCC2", 101],
  ["C#Cc1c(F)ccc2cc(O)cc(-c3ncc4c(N5CC6CCC(C5)N6)nc(OCC56CCCN5CC(F)C6)nc4c3F)c12 (centres undefined) + CCN1C(C(=O)NC23CCC(C(=O)O)(CC2)CC3)C(c2cccc(Cl)c2F)C2(C(=O)Nc3cc(Cl)ccc32)C12CCCCC2", 41.4]
]}

Then this molecule:
Lab note: need viability, T/C for O=C(c1cc(Cc2n[nH]c(=O)c3ccccc23)ccc1F)N1CCN(C(=O)C2CC2)CC1 + CCN1C(C(=O)NC23CCC(C(=O)O)(CC2)CC3)C(c2cccc(Cl)c2F)C2(C(=O)Nc3cc(Cl)ccc32)C12CCCCC2 on 521955-158-R6-J3-PDC complex spheroid growth, % test/control, anyone have it?
82

* * *

- Tested on: 521955-158-R6-J3-PDC complex spheroid growth, % test/control
- procedure_details: Anticancer human tumor 521955-158-R6-J3-PDC cell line growth inhibition [Asc];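 note: spheroids exposed to compounds for 7 days; 100% = DMSO vehicle control wells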
- test_settings: second compound 0.01 µM; first compound 0.1 µM; stronger effect = lower value
- Excerpt: Multicellular complex tumor spheroid response to apoptosis pathway targeting inhibitors Alrizomadlin, Pelcitoclax, and Dasminapant in combination with a variety of drugs and investigational agents in selected tumor cell lines […] Compounds. […] If the clinical Cmax for an agent had not been determined, the highest concentration tested was 10 microM. […]
measured_parameter: viability, T/C (%)
Quick reminder: number only, in %, skip the unit.

{"columns": ["compound", "viability, T/C [%]"],
 "data": [
  ["C=CC(=O)N1CCN(c2nc(=O)n(-c3c(C)ccnc3C(C)C)c3nc(-c4c(O)cccc4F)c(F)cc23)C(C)C1 (configuration not stated) + CNC(C)C(=O)NC1CN(S(=O)(=O)c2cccc(S(=O)(=O)N3CCC4CCC(C(=O)NC(c5ccccc5)c5ccccc5)N4C(=O)C(NC(=O)C(C)NC)C3)c2)CCC2CCC(C(=O)NC(c3ccccc3)c3ccccc3)N2C1=O", 85.3]
]}

What value of measured viability, T/C is listed for O=C(c1cc(Cc2n[nH]c(=O)c3ccccc23)ccc1F)N1CCN(C(=O)C2CC2)CC1 + CNC(C)C(=O)NC1CN(S(=O)(=O)c2cccc(S(=O)(=O)N3CCC4CCC(C(=O)NC(c5ccccc5)c5ccccc5)N4C(=O)C(NC(=O)C(C)NC)C3)c2)CCC2CCC(C(=O)NC(c3ccccc3)c3ccccc3)N2C1=O ?
133

* * *

// reported viability, T/C for each item listed
- Test system: 521955-158-R6-J3-PDC complex spheroid growth, % test/control
- procedure_details: Anticancer human tumor 521955-158-R6-J3-PDC cell line growth inhibition [Asc];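 note: spheroids exposed to compounds for 7 days; 100% = DMSO vehicle control wells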
- test_settings: second compound 0.0316 µM; first compound 1 µM; stronger effect = lower value

Reference set, count: 3
{"columns": ["molecule", "viability, T/C"],
 "data": [
  ["CNC(C)C(=O)NC1CN(S(=O)(=O)c2cccc(S(=O)(=O)N3CCC4CCC(C(=O)NC(c5ccccc5)c5ccccc5)N4C(=O)C(NC(=O)C(C)NC)C3)c2)CCC2CCC(C(=O)NC(c3ccccc3)c3ccccc3)N2C1=O (centres undefined) + Cc1c(S(C)(=O)=O)c(-c2cc(F)cc(N3CCN(c4ccc(NS(=O)(=O)c5ccc(NC(CCN6CCC(C(=O)OCCCP(=O)(O)O)CC6)CSc6ccccc6)c(S(=O)(=O)C(F)(F)F)c5)cc4)CC3)c2)c(-c2ccc(Cl)cc2)n1C(C)C", "60.4%"],
  ["C=C(F)C(=O)N1CCN(c2nc(OCC3CCCN3C)nc3c2CCN(c2cccc4cccc(Cl)c24)C3)CC1CC#N (centres undefined) + Cc1c(S(C)(=O)=O)c(-c2cc(F)cc(N3CCN(c4ccc(NS(=O)(=O)c5ccc(NC(CCN6CCC(C(=O)OCCCP(=O)(O)O)CC6)CSc6ccccc6)c(S(=O)(=O)C(F)(F)F)c5)cc4)CC3)c2)c(-c2ccc(Cl)cc2)n1C(C)C", "73.3%"],
  ["CCN1CCN(Cc2ccc(Nc3ncc(F)c(-c4cc(F)c5nc(C)n(C(C)C)c5c4)n3)nc2)CC1 + Cc1c(S(C)(=O)=O)c(-c2cc(F)cc(N3CCN(c4ccc(NS(=O)(=O)c5ccc(NC(CCN6CCC(C(=O)OCCCP(=O)(O)O)CC6)CSc6ccccc6)c(S(=O)(=O)C(F)(F)F)c5)cc4)CC3)c2)c(-c2ccc(Cl)cc2)n1C(C)C", "84.4%"]
]}

What value of measured viability, T/C is listed for CCN1CCN(Cc2ccc(Nc3ncc(F)c(-c4cc(F)c5nc(C)n(C(C)C)c5c4)n3)nc2)CC1 + CNC(C)C(=O)NC1CN(S(=O)(=O)c2cccc(S(=O)(=O)N3CCC4CCC(C(=O)NC(c5ccccc5)c5ccccc5)N4C(=O)C(NC(=O)C(C)NC)C3)c2)CCC2CCC(C(=O)NC(c3ccccc3)c3ccccc3)N2C1=O ?
92.1%

What value of measured viability, T/C is listed for C#Cc1c(F)ccc2cc(O)cc(-c3ncc4c(N5CC6CCC(C5)N6)nc(OCC56CCCN5CC(F)C6)nc4c3F)c12 (centres undefined) + CNC(C)C(=O)NC1CN(S(=O)(=O)c2cccc(S(=O)(=O)N3CCC4CCC(C(=O)NC(c5ccccc5)c5ccccc5)N4C(=O)C(NC(=O)C(C)NC)C3)c2)CCC2CCC(C(=O)NC(c3ccccc3)c3ccccc3)N2C1=O ?
33.1%

What value of measured viability, T/C is listed for O=C(c1cc(Cc2n[nH]c(=O)c3ccccc23)ccc1F)N1CCN(C(=O)C2CC2)CC1 + CNC(C)C(=O)NC1CN(S(=O)(=O)c2cccc(S(=O)(=O)N3CCC4CCC(C(=O)NC(c5ccccc5)c5ccccc5)N4C(=O)C(NC(=O)C(C)NC)C3)c2)CCC2CCC(C(=O)NC(c3ccccc3)c3ccccc3)N2C1=O ?
74.3%

What value of measured viability, T/C is listed for C=CC(=O)N1CCN(c2nc(=O)n(-c3c(C)ccnc3C(C)C)c3nc(-c4c(O)cccc4F)c(F)cc23)C(C)C1 (centres undefined) + Cc1c(S(C)(=O)=O)c(-c2cc(F)cc(N3CCN(c4ccc(NS(=O)(=O)c5ccc(NC(CCN6CCC(C(=O)OCCCP(=O)(O)O)CC6)CSc6ccccc6)c(S(=O)(=O)C(F)(F)F)c5)cc4)CC3)c2)c(-c2ccc(Cl)cc2)n1C(C)C ?
80.3%

What value of measured viability, T/C is listed for COc1c(OCCCN2CCOCC2)ccc2c3n(c(=NC(=O)c4cnc(N)nc4)nc12)CCN3 + CNC(C)C(=O)NC1CN(S(=O)(=O)c2cccc(S(=O)(=O)N3CCC4CCC(C(=O)NC(c5ccccc5)c5ccccc5)N4C(=O)C(NC(=O)C(C)NC)C3)c2)CCC2CCC(C(=O)NC(c3ccccc3)c3ccccc3)N2C1=O ?
26.6%

What value of measured viability, T/C is listed for O=C(c1ccc(F)c(F)c1Nc1ccc(I)cc1F)N1CC(O)([C@@H]2CCCCN2)C1 + CNC(C)C(=O)NC1CN(S(=O)(=O)c2cccc(S(=O)(=O)N3CCC4CCC(C(=O)NC(c5ccccc5)c5ccccc5)N4C(=O)C(NC(=O)C(C)NC)C3)c2)CCC2CCC(C(=O)NC(c3ccccc3)c3ccccc3)N2C1=O ?
31%

Where these numbers come from: PubChem BioAssay AID1963451
